Target: JAK3 (Homo sapiens, UniProt P52333)
Construct: The Ramos B-cell line was acquired from ATCC (ATCC Catalog No. CRL-1596)
Sequence (P52333 whole entry): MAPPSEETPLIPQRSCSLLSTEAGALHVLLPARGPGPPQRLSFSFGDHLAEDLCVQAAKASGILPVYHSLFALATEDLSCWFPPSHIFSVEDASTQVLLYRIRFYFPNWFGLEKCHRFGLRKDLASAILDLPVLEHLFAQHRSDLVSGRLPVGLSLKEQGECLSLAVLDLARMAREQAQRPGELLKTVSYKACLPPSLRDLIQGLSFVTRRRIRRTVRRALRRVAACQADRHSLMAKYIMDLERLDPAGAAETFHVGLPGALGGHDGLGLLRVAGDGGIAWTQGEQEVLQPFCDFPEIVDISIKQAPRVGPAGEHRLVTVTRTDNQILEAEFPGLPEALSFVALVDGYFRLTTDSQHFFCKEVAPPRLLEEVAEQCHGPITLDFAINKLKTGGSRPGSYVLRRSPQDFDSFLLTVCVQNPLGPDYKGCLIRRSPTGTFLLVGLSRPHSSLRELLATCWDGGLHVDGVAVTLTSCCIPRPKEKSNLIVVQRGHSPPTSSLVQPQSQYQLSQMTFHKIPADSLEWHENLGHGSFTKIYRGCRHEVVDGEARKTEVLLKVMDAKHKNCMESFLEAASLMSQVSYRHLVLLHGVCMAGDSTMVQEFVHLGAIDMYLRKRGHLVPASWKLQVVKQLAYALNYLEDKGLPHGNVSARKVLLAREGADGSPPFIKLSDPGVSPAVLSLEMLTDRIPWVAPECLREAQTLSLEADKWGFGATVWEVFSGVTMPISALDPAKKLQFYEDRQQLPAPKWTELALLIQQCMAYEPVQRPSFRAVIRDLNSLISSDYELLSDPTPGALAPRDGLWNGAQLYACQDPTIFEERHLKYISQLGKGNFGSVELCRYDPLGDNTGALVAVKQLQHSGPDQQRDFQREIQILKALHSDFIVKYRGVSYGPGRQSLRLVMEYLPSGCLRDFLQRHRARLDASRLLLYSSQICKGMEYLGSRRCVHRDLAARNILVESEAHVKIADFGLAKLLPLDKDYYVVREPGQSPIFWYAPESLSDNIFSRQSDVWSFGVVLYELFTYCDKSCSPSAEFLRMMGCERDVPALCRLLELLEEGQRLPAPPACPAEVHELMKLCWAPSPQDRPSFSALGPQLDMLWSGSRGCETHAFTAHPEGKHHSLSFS
Assay: Assay for CD23 expression on Ramos B-cells stimulated by IL-4 (Table IV: ability to inhibit JAK3 activity)
Settings: tested under conditions described in Example 3 (so in the source)
Protocol: One means of assaying for such inhibition is detection of the effect of the 2,4-pyrimidinediamine compounds on the upregulation of downstream gene products. […] 20 to 24 hours post stimulation, cells are stained for upregulation of CD23 and analyzed using FACS. […]
pIC50: −log10 of the molar value. Counter-ions that a name gives are not always drawn.
Recorded pIC50 by entry
Readout Kind: pIC50

Compound: COCCOc1c(C)ccc(Nc2ncc(Cl)c(Nc3ccc4oc(=O)[nH]c4c3)n2)c1F [Compound I-66, trifluoroacetate salt]
Endpoint Result: > 6.30

Compound: Cc1cc(Nc2ncc(Cl)c(Nc3ccc4oc(=O)[nH]c4c3)n2)cc(C)c1C#N [Compound I-69, trifluoroacetate salt]
Endpoint Result: > 6.30

Compound: COc1cccc(Nc2ncc(F)c(Nc3ccc4oc(=O)[nH]c4c3)n2)c1F [Compound I-20, trifluoroacetate salt]
Endpoint Result: 5.30 to 6.30

Compound: COc1cc(Nc2ncc(F)c(Nc3cc(C)c4oc(=O)[nH]c4c3)n2)cc(C)c1OC [Compound I-183, trifluoroacetate salt]
Endpoint Result: > 6.30

Compound: CCN(CC)c1cc(Nc2ncc(Cl)c(Nc3ccc4oc(=O)[nH]c4c3)n2)cc(C)c1C [Compound I-86, formate salt]
Endpoint Result: > 6.30

Compound: O=c1[nH]c2cc(Nc3nc(Nc4ccc5c(c4)CCC(N4CCCC4)CC5)ncc3F)ccc2o1 (centres unmarked) [II-2, diformate salt]
Endpoint Result: > 6.30

Compound: CCc1ccc(Nc2ncc(C)c(Nc3ccc4oc(=O)[nH]c4c3)n2)c(F)c1OC [Compound I-68, trifluoroacetate salt]
Endpoint Result: > 6.30

Compound: Cc1cnc(Nc2cc(C)c(C)c(C)c2)nc1Nc1cc(CN(C)C)c2oc(=O)[nH]c2c1 [Compound I-89, ditrifluoroacetate salt]
Endpoint Result: 5.30 to 6.30

Compound: COCCOc1ccc(Nc2ncc(Cl)c(Nc3ccc4oc(=O)[nH]c4c3)n2)c(F)c1OCCOC [Compound I-78, trifluoroacetate salt]
Endpoint Result: > 6.30

Compound: COc1cc(Nc2ncc(C)c(Nc3ccc4oc(=O)[nH]c4c3)n2)cc(F)c1C [Compound I-120, trifluoroacetate salt]
Endpoint Result: > 6.30

Compound: Cc1cnc(Nc2cc(C)c(F)c(C)c2)nc1Nc1ccc2oc(=O)[nH]c2c1
Endpoint Result: > 6.30

Compound: O=C1COc2cc(Nc3ncc(F)c(Nc4ccc5oc(=O)[nH]c5c4)n3)ccc2N1 [II-25, formate salt]
Endpoint Result: > 6.30

Compound: COCCOc1c(C)ccc(Nc2ncc(F)c(Nc3ccc4oc(=O)[nH]c4c3)n2)c1F [Compound I-61, trifluoroacetate salt]
Endpoint Result: > 6.30

Compound: CCN(c1cc(C)c(C)c(C)c1)c1ncc(C)c(Nc2ccc3oc(=O)[nH]c3c2)n1
Endpoint Result: < 5.00

* * *

biological target: JAK3 (Homo sapiens); construct: The Ramos B-cell line was acquired from ATCC (ATCC Catalog No. CRL-1596); experiment: Assay for CD23 expression on Ramos B-cells stimulated by IL-4 (Table IV: ability to inhibit JAK3 activity); conditions: tested under conditions described in Example 3 (so in the source)
Counter-ions that a name gives are not always drawn.
Recorded IC50 by entry
Readout Kind: IC50

Compound: Cc1cnc(Nc2cc(C)c(C)c(C)c2)nc1Nc1ccc2oc(=O)n(COP(=O)(O)OCCN(C)C)c2c1
Readout Kind: IC50
Endpoint Result: 5000 to 10000 nM

Compound: COc1cc(Nc2ncc(F)c(Nc3ccc4oc(=O)[nH]c4c3)n2)c(F)cc1C [Compound I-123, trifluoroacetate salt]
Readout Kind: IC50
Endpoint Result: 5000 to 10000 nM

Compound: COC(=O)c1cnc(Nc2cc(OC)cc(C(F)(F)F)c2)nc1Nc1ccc2oc(=O)[nH]c2c1 [Compound I-55, trifluoroacetate salt]
Readout Kind: IC50
Endpoint Result: > 10000 nM

Compound: COc1ccc(Nc2ncc(F)c(Nc3cc(C)c4oc(=O)[nH]c4c3)n2)cc1C [Compound I-178, trifluoroacetate salt]
Readout Kind: IC50
Endpoint Result: < 500 nM

Compound: NC(=O)c1ccc(Nc2nccc(Nc3ccc4oc(=O)[nH]c4c3)n2)cc1 [Compound I-2, trifluoroacetate salt]
Readout Kind: IC50
Endpoint Result: < 500 nM

Compound: COc1cc(Nc2ncc(F)c(Nc3ccc4oc(=O)[nH]c4c3)n2)cc(F)c1C [Compound I-121, trifluoroacetate salt]
Readout Kind: IC50
Endpoint Result: < 500 nM

Compound: CN1C/C=C\Cc2ccc(Nc3ncc(F)c(Nc4ccc5oc(=O)[nH]c5c4)n3)cc2C1=O [II-4, formate salt]
Readout Kind: IC50
Endpoint Result: < 500 nM

Compound: CCNC(=O)c1ccc(Nc2ncc(F)c(Nc3ccc4oc(=O)[nH]c4c3)n2)cc1 [Compound I-162, formate salt]
Readout Kind: IC50
Endpoint Result: < 500 nM

Compound: Cc1cnc(Nc2cc(C)c(F)c(C(=O)O)c2)nc1Nc1ccc2oc(=O)[nH]c2c1
Readout Kind: IC50
Endpoint Result: 500 to 5000 nM
